// data source = ChEMBL document CHEMBL1136629

target: Peroxisome proliferator-activated receptor delta (Homo sapiens)
Sequence (Q03181 whole entry): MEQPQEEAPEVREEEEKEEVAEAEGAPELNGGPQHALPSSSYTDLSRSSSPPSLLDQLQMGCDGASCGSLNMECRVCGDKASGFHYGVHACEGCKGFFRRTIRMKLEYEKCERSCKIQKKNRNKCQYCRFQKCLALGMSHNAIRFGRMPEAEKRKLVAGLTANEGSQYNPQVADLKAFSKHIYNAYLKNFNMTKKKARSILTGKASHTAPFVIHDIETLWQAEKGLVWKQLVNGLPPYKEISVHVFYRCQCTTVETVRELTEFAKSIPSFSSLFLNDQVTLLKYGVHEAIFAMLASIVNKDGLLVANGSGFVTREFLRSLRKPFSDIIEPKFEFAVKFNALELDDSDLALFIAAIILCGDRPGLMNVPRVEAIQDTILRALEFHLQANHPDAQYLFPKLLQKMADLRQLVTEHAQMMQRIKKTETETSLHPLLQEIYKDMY
pKi: −log10 of the molar value.
# binarize pKi: threshold 7 inclusive, high side Fulfilled, low side Not fulfilled

Tell me whether pKi is at least 7 here: CCCc1c(OCCCOc2ccc(CCCC(=O)O)cc2)ccc2c(-c3ccccc3)noc12 Fulfilled

Tell me whether pKi is at least 7 here: CCCc1c(OCCCCOc2ccc(/C=C/C(=O)O)cc2)ccc2c(-c3ccccc3)noc12 Not fulfilled

Tell me whether pKi is at least 7 here: CCCc1c(OCCCCOc2ccc(C(C)(C)C(=O)O)cc2)ccc2c(-c3ccccc3)noc12 Not fulfilled

Tell me whether pKi is at least 7 here: CCCc1c(OCCCOc2ccc(OCC(=O)O)cc2)ccc2c(-c3ccccc3)noc12 Fulfilled

Tell me whether pKi is at least 7 here: CCCc1c(OCCCCOc2cccc(C(=O)O)c2)ccc2c(-c3ccccc3)noc12 Not fulfilled

Tell me whether pKi is at least 7 here: CCCc1c(OCCCCOc2cccc(C(C)(C)C(=O)O)c2)ccc2c(-c3ccccc3)noc12 Not fulfilled

Tell me whether pKi is at least 7 here: CCCc1c(OCCCOc2ccc(/C=C/C(=O)O)cc2)ccc2c(-c3ccccc3)noc12 Fulfilled

Tell me whether pKi is at least 7 here: CCCc1c(OCCCCOc2ccc(C(C)(C)CC(=O)O)cc2)ccc2c(-c3ccccc3)noc12 Not fulfilled
